EXPERIMENTAL_SYSTEM: amylin (Am; human islet amyloid polypeptide) (Homo sapiens)
Construct: Am is a cyclic oligopeptide consisting of 37 amino acid residues
TEST: Cleavage of oligomers of amylin by cleavage agent (MALDI-TOF MS, cleavage yield)
Type: biochemical
CONDITION_NOTES: Am 4.0 μM, cleavage agent 0.38-7.1 μM (figure legends), 37° C., pH 7.50, 36 hours
QUANTITY_KIND: cleavage products of Am (MALDI-TOF MS)

INSERT INTO results (structure_as_smiles, experimental_system, recorded_measurement) VALUES
  ('CCCCNc1nc(NCCCN2CCNCCNCCNCC2)nc(NCc2ccc(-c3nc4ccccc4o3)cc2)n1.O.O.[Co+3]', 'amylin (Am; human islet amyloid polypeptide) (Homo sapiens)', 'Am20-37 and Am19-37'),
  ('Cc1ccccc1CNc1nc(NCCC(=O)NCCCN2CCNCCNCCNCC2)nc(OCCN(C)c2ccc(-c3nc4ccccc4s3)cc2)n1.O.O.[Co+3]', 'amylin (Am; human islet amyloid polypeptide) (Homo sapiens)', 'Am20-37 and Am19-37');

* * *

EXPERIMENTAL_SYSTEM: amylin (Am; human islet amyloid polypeptide) (Homo sapiens, UniProt P10997)
Construct: Am is a cyclic oligopeptide consisting of 37 amino acid residues
Sequence (P10997 34-70 limits assumed): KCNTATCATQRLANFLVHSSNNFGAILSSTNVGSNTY
TEST: Cleavage of oligomers of amylin by cleavage agent (MALDI-TOF MS, cleavage yield)
Type: biochemical
CONDITION_NOTES: Am 4.0 μM, cleavage agent 0.38-7.1 μM (figure legends), 37° C., pH 7.50, 36 hours
QUANTITY_KIND: cleavage of Am (MALDI-TOF mass spectrum of HPLC-purified products)

INSERT INTO assay_data (molecule, recorded_measurement) VALUES
  ('CCCCNc1nc(NCCCN2CCNCCNCCNCC2)nc(NCc2ccc(-c3nc4ccccc4o3)cc2)n1.O.O.[Co+3]', 'cleaved'),
  ('CC(Nc1nc(NCc2ccc(Cl)cc2)nc(OCCN(C)c2ccc(-c3nc4ccccc4s3)cc2)n1)C(=O)NCCCN1CCNCCNCCNCC1.O.O.[Co+3] (centres unmarked)', 'cleaved'),
  ('Cc1ccccc1CNc1nc(NCCC(=O)NCCCN2CCNCCNCCNCC2)nc(OCCN(C)c2ccc(-c3nc4ccccc4s3)cc2)n1.O.O.[Co+3]', 'cleaved'),
  ('CC(C)CC(Nc1nc(OCCN(C)c2ccc(-c3nc4ccccc4s3)cc2)nc(N2CCCCC2)n1)C(=O)NCCCN1CCNCCNCCNCC1.O.O.[Co+3] (centres unmarked)', 'cleaved');

Prompt: Suppose we examine the molecule CCCCNc1nc(NCCCN2CCNCCNCCNCC2)nc(OCCN(C)c2ccc(-c3nc4ccccc4s3)cc2)n1.O.O.[Co+3] ; what cleavage of Am (MALDI-TOF mass spectrum of HPLC-purified products) value has been reported?
Response: cleaved
